tested on: Caco-2; assay: cell viability relative to DMSO; higher = less toxic; details: 72 h; 1 nM
Here the recorded cell viability is given for each entry.

COMPOUND	cell viability (%)
CCc1cccc(CC)c1NC(=O)CN(CC(=O)O)CC(=O)O	83.1
CCCCN(Cc1ccc(C(=O)NO)cc1)C(=O)Nc1ccccc1	101
C[C@@H](Oc1cc(-n2cnc3ccc(CN4CCN(C)CC4)cc32)sc1C(N)=O)c1ccccc1C(F)(F)F	96.8
C/C(=N\NC(=O)[C@@H]1C(=O)NC[C@H]1c1ccccc1)c1cccc(Br)c1	102
CN1CCN(CCCN2c3ccccc3Sc3ccc(S(=O)(=O)N(C)C)cc32)CC1	95.7
CN(CCOc1ccc(NS(C)(=O)=O)cc1)CCc1ccc(NS(C)(=O)=O)cc1 [dofetilide]	91.1
Cn1cc(-c2ccc3nnc(C(F)(F)c4ccc5ncccc5c4)n3n2)cn1	105
CCCS(=O)(=O)Nc1ccc(F)c(C(=O)c2c[nH]c3ncc(-c4ccc(Cl)cc4)cc23)c1F	109
Cc1cc(Nc2nc(N[C@@H](C)c3ccc(F)cc3)c(C#N)cc2F)n[nH]1	112
CC(C)Oc1ccc(-c2nc(-c3cccc4c3CC[C@@H]4NCCO)no2)cc1C#N	95.2
COc1ccc(CNC(=O)/C=C/c2ccc3[nH]cc(CCN(C)C)c3c2)cc1	106
COCC1(CO)C(=O)C2CCN1CC2 (stereo not given)	99.5
CN1C(=O)N(c2ccc(C#N)c(C(F)(F)F)c2)C(=O)[C@]1(CO)c1ccccc1 [GLPG0492-R-enantiomer]	96.1
COc1ccc2c3c1O[C@H]1C[C@@H](O)C=C[C@@]31CCN(C)C2	90.2
CN(C)C(=N)NCCC[C@H](N)C(=O)O	101
NCCCC[C@H](NC(=O)[C@@H]1CCCN1C(=O)[C@@H]1CSSC[C@H](N)C(=O)N[C@@H](Cc2ccc(O)cc2)C(=O)N[C@@H](Cc2ccccc2)C(=O)N[C@@H](CCC(N)=O)C(=O)N[C@@H](CC(N)=O)C(=O)N1)C(=O)NCC(N)=O	98.6
O=C1NC(=O)/C(=C/c2cccc(C(F)(F)F)c2)S1	97.7
COc1ccc2[nH]cc(CCNC(C)=O)c2c1	107
Cc1c(OCC(F)(F)F)ccnc1C[S+]([O-])c1nc2ccccc2[nH]1 (stereo not given)	99.7
CCCCN(CCCC)CCCOC(=O)c1ccc(N)cc1	92.7
CCCCCCCCCCCCCCCC[N+](C)(C)C	92.7
CC1(C)N=C(N)N=C(N)N1OCCCOc1cc(Cl)c(Cl)cc1Cl	99.7
O=S(=O)(O)CCS	114
Cc1cc(-c2ccc(/N=N/c3ccc4c(S(=O)(=O)O)cc(S(=O)(=O)O)c(N)c4c3O)c(C)c2)ccc1/N=N/c1ccc2c(S(=O)(=O)O)cc(S(=O)(=O)O)c(N)c2c1O	96.7
CCCCCCCCNC(C)C(O)c1ccc(SC(C)C)cc1 (stereo not given)	105
Cc1cn(-c2cc(NC(=O)c3ccc(C)c(Nc4nccc(-c5cccnc5)n4)c3)cc(C(F)(F)F)c2)cn1	101
CCCC[C@@]1(C2CCCC2)Cc2cc(OCCCC(=O)O)c(Cl)c(Cl)c2C1=O	105
CCNCCS(=O)(=O)NC[C@@]1(c2ccccc2)SC(NC(=O)C(C)(C)C)=NN1C(=O)C(C)(C)C	98.1
COc1cc2ncnc(Oc3cccc(NC(=O)Nc4cc(C(C)(C)C(F)(F)F)on4)c3)c2cc1OC	102
O=S(=O)(/N=C/c1c(O)ccc2ccccc12)c1cccs1	102
NC(=O)N1c2ccccc2C=Cc2ccccc21 [carbamazepine]	104
CN1[C@@H]2CC[C@H]1C[C@@H](OC(=O)N1Cc3ccccc3NC1=O)C2	93.3
CC1CCN(CCCC(=O)c2ccc(F)cc2)CC1	99.3
CC(C)SC(=N)N	99
CC(C)(C)C(=O)OCOP(=O)(COCCn1cnc2c(N)ncnc21)OCOC(=O)C(C)(C)C	93.7
